A collection of compounds and their measured Minimal Inhibitory Concentration CA
Tested on: C. albicans
Assay type: cell-based
Conditions: C. albicans; Table I
Where a SMILES comes first, the peptide text is derived from it. [ ]: non-standard residue; d: D form. The star is where a group is joined. Octanoyl = CCCCCCCC(=O)*; Orn = NCCC[C@H](N)C(=O)O
Report only the number, with the unit µg/mL understood.

Use these answered entries as a reference point.
CCCCCCCC(=O)N[C@@H](CCCN)C(=O)N[C@@H](CCCN)C(=O)N[C@@H](CC(C)C)C(=O)N[C@@H](CC(C)C)C(=O)N[C@@H](CCCN)C(=O)N[C@@H](CCCN)C(=O)N[C@@H](CC(C)C)C(=O)N[C@@H](CCCN)C(=O)N[C@@H](CCCN)C(=O)N[C@@H](CC(C)C)C(N)=O [Oct-(SEQ ID NO: 143)-NH2] (Octanoyl-[Orn][Orn]LL[Orn][Orn]L[Orn][Orn]L-NH2) | 16
CCCCCCCC(=O)N[C@@H](CCCCN)C(=O)N[C@H](C(=O)N[C@@H](C)C(=O)N[C@@H](CCCCN)C(=O)N[C@@H](CCCCN)C(=O)N[C@H](C(=O)N[C@@H](C)C(=O)N[C@@H](CCCCN)C(=O)N[C@H](C(=O)N[C@@H](C)C(=O)N[C@@H](CCCCN)C(=O)N[C@@H](CCCCN)C(=O)N[C@H](C(=O)N[C@@H](C)C(N)=O)[C@@H](C)CC)[C@@H](C)CC)[C@@H](C)CC)[C@@H](C)CC [Oct-(SEQ ID NO: 153)-NH2] (Octanoyl-KIAKKIAKIAKKIA-NH2) | 64
CCCCCCCC(=O)N[C@@H](CCCCN)C(=O)N[C@@H](CCCCN)C(=O)N[C@@H](CC(C)C)C(=O)N[C@@H](C)C(=O)N[C@@H](CCCCN)C(=O)N[C@@H](CC(C)C)C(=O)N[C@@H](C)C(=O)N[C@@H](CCCCN)C(=O)N[C@@H](CCCCN)C(=O)N[C@@H](CC(C)C)C(=O)N[C@@H](C)C(N)=O [Oct-(SEQ ID NO: 123)-NH2] (Octanoyl-KKLAKLAKKLA-NH2) | 32

Please find the next compound below.
Item CCCCCCCC(=O)N[C@@H](CCCCN)C(=O)N[C@@H](CC(C)C)C(=O)N[C@@H](C)C(=O)N[C@@H](CCCCN)C(=O)N[C@@H](CC(C)C)C(=O)N[C@@H](C)C(=O)N[C@@H](CCCCN)C(=O)N[C@@H](CCCCN)C(=O)N[C@@H](CC(C)C)C(=O)N[C@@H](C)C(N)=O [Oct-(SEQ ID NO: 124)-NH2] (Octanoyl-KLAKLAKKLA-NH2) with C. albicans - Minimal Inhibitory Concentration CA? 128

---

System: C. albicans
Format: cell-based
Where a SMILES comes first, the peptide text is derived from it. The star is where a group is joined. Octanoyl = CCCCCCCC(=O)*
MEASUREMENT_TYPE: Minimal Inhibitory Concentration CA (µg/mL)
State just the number; it will be interpreted in µg/mL.

CCCCCCCC(=O)N[C@@H](CCCCN)C(=O)N[C@@H](CC(C)C)C(=O)N[C@@H](CCCCN)C(=O)N[C@@H](CCCCN)C(=O)N[C@@H](CC(C)C)C(=O)N[C@@H](CCCCN)C(=O)N[C@@H](CCCCN)C(=O)N[C@@H](CC(C)C)C(=O)N[C@@H](Cc1ccccc1)C(=O)N[C@@H](CCCCN)C(N)=O [Oct-(SEQ ID NO: 148)-NH2] (Octanoyl-KLKKLKKLFK-NH2) | 128

Provide value of Minimal Inhibitory Concentration CA for this record tested with C. albicans: CCCCCCCC(=O)N[C@@H](CCCCN)C(=O)N[C@@H](CCCCN)C(=O)N[C@@H](CCCCN)C(=O)N[C@@H](CC(C)C)C(=O)N[C@@H](CC(C)C)C(=O)N[C@@H](CCCCN)C(=O)N[C@@H](CCCCN)C(=O)N[C@@H](CC(C)C)C(=O)N[C@@H](CCCCN)C(=O)N[C@@H](CCCCN)C(=O)N[C@@H](CC(C)C)C(N)=O [Oct-(SEQ ID NO: 128)-NH2] (Octanoyl-KKKLLKKLKKL-NH2) 32

---

Assay: MTD and LD50, single intraperitoneal administration
Assay type: in vivo, mice
Conditions: mouse, in vivo, ip, CD-1 mice, estimated from dose response curves
Where no end group is shown, it is not given here.
MEASUREMENT_TYPE: LD50 (mg/kg)
Answer with a number only, understood to be in mg/kg.

Recorded LD50 of GIGKFLKKAKKFGKAFVKILKK [MSI-344] , please. 23.5

---

Reported values of pIC50 for individual entries
Test system: A-549 human lung carcinoma cells
Assay type: cell-based
Conditions: 24 h
Where no end group is shown, it is not given here.
By convention, pIC50 is the negative base-10 log of a molar concentration.

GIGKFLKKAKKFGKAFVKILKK [MSI-344] | 5.00

What pIC50 value was documented for this sequence, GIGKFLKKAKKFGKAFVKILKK [MSI-78] ? 5.52

---

Assay: maximal tolerated dose, single intravenous administration of Compound 1324
Assay type: in vivo, mice
Details: mouse, in vivo; single intravenous bolus, CD-1 mice; read-out: MTD i.v. (maximum tolerated dose, non-lethal)
Experimental: Mice received single intravenous administrations of Compound 1324, the methane sulfonate analogue of Compound 843, and were monitored for survival for at least 4 days. There were no deaths at a dose of less than or equal to 180 mg/kg. […] Mice were randomly assigned to one of ten groups (4 mice per group, except the highest dose group which only had one mouse). […] Mice were monitored for survival for at least four days post-administration.
Where a SMILES comes first, the peptide text is derived from it. [ ]: non-standard residue; d: D form. The star is where a group is joined. Octanoyl = CCCCCCCC(=O)*; Orn = NCCC[C@H](N)C(=O)O
MEASUREMENT_TYPE: MTD (mg/kg)
Entry rule: numbers only, all in mg/kg.

Any idea what MTD was measured for CCCCCCCC(=O)N[C@@H](CCCN)C(=O)N[C@@H](CCCN)C(=O)N[C@@H](CC(C)C)C(=O)N[C@@H](CC(C)C)C(=O)N[C@@H](CCCN)C(=O)N[C@@H](CCCN)C(=O)N[C@@H](CC(C)C)C(=O)N[C@@H](CCCN)C(=O)N[C@@H](CCCN)C(=O)N[C@@H](CC(C)C)C(N)=O [Oct-(SEQ ID NO: 143)-NH2] (Octanoyl-[Orn][Orn]LL[Orn][Orn]L[Orn][Orn]L-NH2) ? 20

---

Experiment: MTD of repeat-dose intraperitoneal administration
Format: in vivo, SCID mice
Details: male, SCID (Fox Chase C.B-17/IcrTac-scidfDF), mouse, in vivo, ip, SCID mice, interim analysis at 3 weeks; read-out: MTD, thrice per week dosing schedule
Where no end group is shown, it is not given here.
MEASUREMENT_TYPE: MTD at 504 h

What measured MTD at 504 h goes with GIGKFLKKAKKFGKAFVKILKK [MSI-344] ? ≥ 2.57 mg/kg/day

---

Test: MTD and LD50, single intraperitoneal administration
Type: in vivo, mice
Conditions: mouse, in vivo, ip, CD-1 mice; read-out: MTD of a single intraperitoneal (i.p.) administration
Where no end group is shown, it is not given here.
MEASUREMENT_TYPE: MTD

Item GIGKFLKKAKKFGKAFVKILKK [MSI-344] has what recorded MTD? < 20 mg/kg

---

System: C. albicans
Format: cell-based
Where a SMILES comes first, the peptide text is derived from it. The star is where a group is joined. Octanoyl = CCCCCCCC(=O)*
MEASUREMENT_TYPE: Minimal Inhibitory Concentration CA

Worked examples, 2 compounds total:
CCCCCCCC(=O)N[C@@H](CCCNC(=N)N)C(=O)N[C@@H](Cc1ccccc1)C(=O)N[C@@H](C)C(=O)N[C@@H](CCCNC(=N)N)C(=O)N[C@@H](CCCNC(=N)N)C(=O)N[C@@H](Cc1ccccc1)C(=O)N[C@@H](C)C(=O)N[C@@H](CCCNC(=N)N)C(=O)N[C@@H](Cc1ccccc1)C(=O)N[C@@H](C)C(=O)N[C@@H](CCCNC(=N)N)C(=O)N[C@@H](CCCNC(=N)N)C(=O)N[C@@H](Cc1ccccc1)C(=O)N[C@@H](C)C(N)=O [Oct-(SEQ ID NO: 126)-NH2] (Octanoyl-RFARRFARFARRFA-NH2) | 64 µg/mL
CCCCCCCC(=O)N[C@@H](CCCNC(=N)N)C(=O)N[C@@H](CC(C)C)C(=O)N[C@@H](CC(C)C)C(=O)N[C@@H](CCCNC(=N)N)C(=O)N[C@@H](CCCNC(=N)N)C(=O)N[C@@H](CC(C)C)C(=O)N[C@@H](CCCNC(=N)N)C(=O)N[C@@H](CCCNC(=N)N)C(=O)N[C@@H](CC(C)C)C(N)=O [Oct-(SEQ ID NO: 145)-NH2] (Octanoyl-RLLRRLRRL-NH2) | 64 µg/mL

Next compound, Minimal Inhibitory Concentration CA to be filled in.
Identify the measured Minimal Inhibitory Concentration CA of CCCCCCCC(=O)N[C@@H](CCC(=O)O)C(=O)N[C@@H](CCCCN)C(=O)N[C@@H](CCCCN)C(=O)N[C@@H](CC(C)C)C(=O)N[C@@H](CC(C)C)C(=O)N[C@@H](CCCCN)C(=O)N[C@@H](CCCCN)C(=O)N[C@@H](CC(C)C)C(=O)N[C@@H](CCCCN)C(=O)N[C@@H](CCCCN)C(=O)N[C@@H](CC(C)C)C(N)=O [Oct-(SEQ ID NO: 127)-NH2] (Octanoyl-EKKLLKKLKKL-NH2) for C. albicans. 128 µg/mL
